// data source = patent US20220025023A1

study-system: T1, TP-30 (also: biotinylated, site not given here)
T1 construct: also called TP-30 peptide
T1 peptide: PKHNSNRQLERSGRF
protocol-summary: indirect ELISA, biotinylated 15-mer on streptavidin plate, hybridoma supernatant
Where no end group is shown, it is not given here.
measurement-kind: binding result

INSERT INTO measurements (binder, reported_measurement) VALUES
  ('ACI-7062-412A7-Ab1 (antibody, IgG2b, V domains shown, also called 412A7B7; clone 9) VH: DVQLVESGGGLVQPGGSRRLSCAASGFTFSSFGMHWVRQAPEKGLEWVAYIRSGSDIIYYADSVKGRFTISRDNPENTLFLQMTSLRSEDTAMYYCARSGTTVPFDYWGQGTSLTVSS VL: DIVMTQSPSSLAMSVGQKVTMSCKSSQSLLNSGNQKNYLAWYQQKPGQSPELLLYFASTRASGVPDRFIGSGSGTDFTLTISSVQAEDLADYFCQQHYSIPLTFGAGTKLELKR', 'no binding'),
  ('ACI-7062-404D6-Ab2 (antibody, IgG3, V domains shown, also called 404D6E11; clone 4) VH: QVTLKESGPGILQPSQTLSLTCSFSGFSLSTYGIGVGWIRQPSGKGLEWLAHIWWNDYKYYNTALKSRLTISKDTSNNRVFLKIASVDTADTATYYCARVYGNLYYFDYWGQGTTLTVSS VL: DVLMTQTPLSLPVSLGDQASISCRSSQSIVHGSGNTYLEWYLQKPGQSPKLLIYKVSNRFSGVPDRFSGSGSGTDFTLRISRVEAEDLGVYYCFQGSHVPTFGAGTKLELKR', 'no binding');
